Target: EFGR WT (Ba/F3 cells) (Homo sapiens, UniProt P00533)
Construct: expressed in transfected cells; host or cells: Ba/F3
Sequence (P00533 25-1210): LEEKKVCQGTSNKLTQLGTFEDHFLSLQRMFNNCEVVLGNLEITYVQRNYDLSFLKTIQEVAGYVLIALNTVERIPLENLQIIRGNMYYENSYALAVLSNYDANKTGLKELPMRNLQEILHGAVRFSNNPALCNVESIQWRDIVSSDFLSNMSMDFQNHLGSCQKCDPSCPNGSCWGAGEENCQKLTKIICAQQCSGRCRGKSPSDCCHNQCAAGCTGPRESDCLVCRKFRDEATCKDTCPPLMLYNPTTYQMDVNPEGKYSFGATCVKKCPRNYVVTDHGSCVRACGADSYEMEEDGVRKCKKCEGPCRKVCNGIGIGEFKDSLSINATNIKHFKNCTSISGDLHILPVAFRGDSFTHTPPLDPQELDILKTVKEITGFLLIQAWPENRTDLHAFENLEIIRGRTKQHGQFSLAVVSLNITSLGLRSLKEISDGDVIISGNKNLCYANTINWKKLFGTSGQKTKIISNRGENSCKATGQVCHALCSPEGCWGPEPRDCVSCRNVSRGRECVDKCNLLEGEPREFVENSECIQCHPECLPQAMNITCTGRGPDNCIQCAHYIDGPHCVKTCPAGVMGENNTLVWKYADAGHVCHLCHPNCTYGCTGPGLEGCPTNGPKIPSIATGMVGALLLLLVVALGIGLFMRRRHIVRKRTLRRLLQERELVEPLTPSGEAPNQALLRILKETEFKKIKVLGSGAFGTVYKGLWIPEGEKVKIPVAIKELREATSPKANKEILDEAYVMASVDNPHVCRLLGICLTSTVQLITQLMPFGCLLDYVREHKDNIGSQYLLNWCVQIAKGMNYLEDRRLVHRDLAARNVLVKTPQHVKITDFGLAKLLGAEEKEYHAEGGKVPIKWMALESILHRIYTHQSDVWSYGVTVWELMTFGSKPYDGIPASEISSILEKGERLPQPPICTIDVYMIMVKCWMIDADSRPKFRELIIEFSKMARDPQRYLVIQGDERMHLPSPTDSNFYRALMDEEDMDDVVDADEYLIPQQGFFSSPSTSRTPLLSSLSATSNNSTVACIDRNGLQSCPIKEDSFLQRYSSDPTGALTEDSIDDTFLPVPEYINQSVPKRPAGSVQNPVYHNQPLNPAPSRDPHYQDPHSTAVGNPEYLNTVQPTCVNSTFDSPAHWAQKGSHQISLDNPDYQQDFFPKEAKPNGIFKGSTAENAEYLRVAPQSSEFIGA
Test: MTS assay, Ba/F3 cells, EFGR WT
Assay type: cell-based
Details: 72 hours
Experimental: The IC50 values of the compounds provided herein were measured against kinases in Ba/F3 cells. Activities of representative compounds of the present application in inhibiting EGFR and HER2 were tested by MTS assay (abcam®) for Ba/F3 cells. For assays with Ba/F3 cells, 3000 cells were seeded for per well in 96-well plates and were exposed to the indicated compounds with a concentration of 3.3 to 10 μM for 72 hours.
Recorded log10 of IC50 for the following compounds
Answers are given as log10 of IC50 in µM.

Example entries begin here.
[
  {
    "compound": "C=CC(=O)N1CCC[C@@H](n2nc(C(=O)Nc3ccc(C(=O)N4CCn5ccnc5C4)c(C)c3)c3c(N)ncnc32)C1 [Compound 6]",
    "recorded_number": 0.97
  },
  {
    "compound": "C=CC(=O)N1CCC[C@@H](n2nc(C(=O)Nc3ccc(CN4CCn5ccnc5C4)c(C)c3)c3c(N)ncnc32)C1 [Compound 9]",
    "recorded_number": 0.90
  },
  {
    "compound": "C=CC(=O)N1CCC[C@@H](n2nc(C(=O)Nc3ccc(Cn4ccnc4)c(C)c3)c3c(N)ncnc32)C1 [Compound 4]",
    "recorded_number": 0.85
  },
  {
    "compound": "C=CC(=O)N1CCC[C@@H](n2nc(C(=O)Nc3ccc(C(=O)N4CCn5ncnc5C4)c(C)c3)c3c(N)ncnc32)C1 [Compound 7]",
    "recorded_number": 0.94
  }
]

# input compound: C=CC(=O)N1CCC[C@@H](n2nc(C(=O)Nc3ccc(Oc4ccn5ncnc5c4)c(C)c3)c3c(N)ncnc32)C1 [Compound 2] ; wanted: its log10 of IC50 0.51

# input compound: C=CC(=O)N1CCC[C@@H](n2nc(C(=O)Nc3cc(C)cc(CC(=O)N(C)C)c3)c3c(N)ncnc32)C1 [Compound 5] ; wanted: its log10 of IC50 0.95

# input compound: C=CC(=O)N1CCC[C@@H](n2nc(C(=O)Nc3ccc(CC(=O)N(C)C)c(C)c3C)c3c(N)ncnc32)C1 [TAS0728, reference compound] ; wanted: its log10 of IC50 -0.04

# input compound: C=CC(=O)N1CCC[C@@H](n2nc(C(=O)Nc3ccc(CN4CCn5ncnc5C4)c(C)c3)c3c(N)ncnc32)C1 [Compound 8] ; wanted: its log10 of IC50 0.98

# input compound: C=CC(=O)N1CCC[C@@H](n2nc(C(=O)Nc3ccc(Oc4ccn5ncnc5c4)c(Cl)c3)c3c(N)ncnc32)C1 [Compound 3] ; wanted: its log10 of IC50 0.32

# input compound: C=CC(=O)N1CCC[C@@H](n2nc(C(=O)Nc3ccc(Oc4ccn5ncnc5c4)c(C)c3C)c3c(N)ncnc32)C1 [Compound 1] ; wanted: its log10 of IC50 0.14

###

biological target: EFGR ASV (Ba/F3 cells) (Homo sapiens, UniProt P00533, INS769ASV); construct: expressed in transfected cells; host or cells: Ba/F3; test: MTS assay, Ba/F3 cells, EFGR ASV; type: cell-based; details: 72 hours
Sequence (P00533 with tags, fused parts or gaps INS769ASV): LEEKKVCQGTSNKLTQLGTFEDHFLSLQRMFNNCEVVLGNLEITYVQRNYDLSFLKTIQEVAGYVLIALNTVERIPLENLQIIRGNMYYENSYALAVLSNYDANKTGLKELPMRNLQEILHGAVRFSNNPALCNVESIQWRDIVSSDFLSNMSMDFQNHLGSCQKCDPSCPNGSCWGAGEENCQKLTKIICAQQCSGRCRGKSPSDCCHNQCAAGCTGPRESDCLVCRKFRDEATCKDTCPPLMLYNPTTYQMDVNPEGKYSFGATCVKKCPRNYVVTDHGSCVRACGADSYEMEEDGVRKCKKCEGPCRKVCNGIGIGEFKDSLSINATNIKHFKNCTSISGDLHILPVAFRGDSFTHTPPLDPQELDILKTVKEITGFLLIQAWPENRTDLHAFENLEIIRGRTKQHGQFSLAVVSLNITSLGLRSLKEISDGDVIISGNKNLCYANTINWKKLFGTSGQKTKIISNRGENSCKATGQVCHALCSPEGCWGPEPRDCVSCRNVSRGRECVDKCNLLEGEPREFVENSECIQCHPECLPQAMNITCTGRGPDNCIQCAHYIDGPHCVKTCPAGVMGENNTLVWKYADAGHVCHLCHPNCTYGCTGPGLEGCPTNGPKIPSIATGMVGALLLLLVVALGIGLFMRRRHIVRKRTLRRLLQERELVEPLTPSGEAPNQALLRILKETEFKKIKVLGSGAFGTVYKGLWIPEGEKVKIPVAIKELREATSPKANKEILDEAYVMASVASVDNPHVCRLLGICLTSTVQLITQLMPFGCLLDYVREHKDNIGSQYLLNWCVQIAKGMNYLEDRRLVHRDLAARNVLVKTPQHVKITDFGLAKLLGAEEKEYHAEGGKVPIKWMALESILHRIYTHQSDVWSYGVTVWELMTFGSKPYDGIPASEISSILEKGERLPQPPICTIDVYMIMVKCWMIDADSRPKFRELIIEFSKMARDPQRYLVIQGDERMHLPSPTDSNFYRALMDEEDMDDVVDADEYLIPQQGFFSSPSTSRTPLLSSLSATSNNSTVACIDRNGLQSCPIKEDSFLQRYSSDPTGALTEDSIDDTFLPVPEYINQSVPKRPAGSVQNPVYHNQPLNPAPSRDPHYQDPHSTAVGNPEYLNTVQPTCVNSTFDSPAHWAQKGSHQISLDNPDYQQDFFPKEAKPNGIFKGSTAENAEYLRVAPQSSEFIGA
Note to self: use 1.0 only for IC50 readings below 2 µM; a reading exactly at 2 µM still gets 0.0.

Please review the entries below; each comes with its answer.
[
  {
    "compound": "C=CC(=O)N1CCC[C@@H](n2nc(C(=O)Nc3ccc(Oc4ccn5ncnc5c4)c(C)c3)c3c(N)ncnc32)C1 [Compound 2]",
    "assay_system": "EFGR ASV (Ba/F3 cells) (Homo sapiens, UniProt P00533, INS769ASV)",
    "class_assignment": 0.0
  },
  {
    "compound": "C=CC(=O)N1CCC[C@@H](n2nc(C(=O)Nc3ccc(Oc4ccn5ncnc5c4)c(Cl)c3)c3c(N)ncnc32)C1 [Compound 3]",
    "assay_system": "EFGR ASV (Ba/F3 cells) (Homo sapiens, UniProt P00533, INS769ASV)",
    "class_assignment": 1.0
  },
  {
    "compound": "C=CC(=O)N1CCC[C@@H](n2nc(C(=O)Nc3ccc(Cn4ccnc4)c(C)c3)c3c(N)ncnc32)C1 [Compound 4]",
    "assay_system": "EFGR ASV (Ba/F3 cells) (Homo sapiens, UniProt P00533, INS769ASV)",
    "class_assignment": 0.0
  },
  {
    "compound": "C=CC(=O)N1CCC[C@@H](n2nc(C(=O)Nc3ccc(C(=O)N4CCn5ccnc5C4)c(C)c3)c3c(N)ncnc32)C1 [Compound 6]",
    "assay_system": "EFGR ASV (Ba/F3 cells) (Homo sapiens, UniProt P00533, INS769ASV)",
    "class_assignment": 0.0
  },
  {
    "compound": "C=CC(=O)N1CCC[C@@H](n2nc(C(=O)Nc3ccc(CC(=O)N(C)C)c(C)c3C)c3c(N)ncnc32)C1 [TAS0728, reference compound]",
    "assay_system": "EFGR ASV (Ba/F3 cells) (Homo sapiens, UniProt P00533, INS769ASV)",
    "class_assignment": 0.0
  }
]

# TODO verify IC50 < 2 µM strictly for this compound: C=CC(=O)N1CCC[C@@H](n2nc(C(=O)Nc3ccc(Oc4ccn5ncnc5c4)c(C)c3C)c3c(N)ncnc32)C1 [Compound 1] 1.0

# TODO verify IC50 < 2 µM strictly for this compound: C=CC(=O)N1CCC[C@@H](n2nc(C(=O)Nc3ccc(C(=O)N4CCn5ncnc5C4)c(C)c3)c3c(N)ncnc32)C1 [Compound 7] 0.0

# TODO verify IC50 < 2 µM strictly for this compound: C=CC(=O)N1CCC[C@@H](n2nc(C(=O)Nc3cc(C)cc(CC(=O)N(C)C)c3)c3c(N)ncnc32)C1 [Compound 5] 0.0

# TODO verify IC50 < 2 µM strictly for this compound: C=CC(=O)N1CCC[C@@H](n2nc(C(=O)Nc3ccc(CN4CCn5ncnc5C4)c(C)c3)c3c(N)ncnc32)C1 [Compound 8] 0.0

###

Molecular target: EFGR SVD (Ba/F3 cells) (Homo sapiens, UniProt P00533, INS770SVD)
Construct: expressed in transfected cells; host or cells: Ba/F3
Sequence (P00533 with tags, fused parts or gaps INS770SVD): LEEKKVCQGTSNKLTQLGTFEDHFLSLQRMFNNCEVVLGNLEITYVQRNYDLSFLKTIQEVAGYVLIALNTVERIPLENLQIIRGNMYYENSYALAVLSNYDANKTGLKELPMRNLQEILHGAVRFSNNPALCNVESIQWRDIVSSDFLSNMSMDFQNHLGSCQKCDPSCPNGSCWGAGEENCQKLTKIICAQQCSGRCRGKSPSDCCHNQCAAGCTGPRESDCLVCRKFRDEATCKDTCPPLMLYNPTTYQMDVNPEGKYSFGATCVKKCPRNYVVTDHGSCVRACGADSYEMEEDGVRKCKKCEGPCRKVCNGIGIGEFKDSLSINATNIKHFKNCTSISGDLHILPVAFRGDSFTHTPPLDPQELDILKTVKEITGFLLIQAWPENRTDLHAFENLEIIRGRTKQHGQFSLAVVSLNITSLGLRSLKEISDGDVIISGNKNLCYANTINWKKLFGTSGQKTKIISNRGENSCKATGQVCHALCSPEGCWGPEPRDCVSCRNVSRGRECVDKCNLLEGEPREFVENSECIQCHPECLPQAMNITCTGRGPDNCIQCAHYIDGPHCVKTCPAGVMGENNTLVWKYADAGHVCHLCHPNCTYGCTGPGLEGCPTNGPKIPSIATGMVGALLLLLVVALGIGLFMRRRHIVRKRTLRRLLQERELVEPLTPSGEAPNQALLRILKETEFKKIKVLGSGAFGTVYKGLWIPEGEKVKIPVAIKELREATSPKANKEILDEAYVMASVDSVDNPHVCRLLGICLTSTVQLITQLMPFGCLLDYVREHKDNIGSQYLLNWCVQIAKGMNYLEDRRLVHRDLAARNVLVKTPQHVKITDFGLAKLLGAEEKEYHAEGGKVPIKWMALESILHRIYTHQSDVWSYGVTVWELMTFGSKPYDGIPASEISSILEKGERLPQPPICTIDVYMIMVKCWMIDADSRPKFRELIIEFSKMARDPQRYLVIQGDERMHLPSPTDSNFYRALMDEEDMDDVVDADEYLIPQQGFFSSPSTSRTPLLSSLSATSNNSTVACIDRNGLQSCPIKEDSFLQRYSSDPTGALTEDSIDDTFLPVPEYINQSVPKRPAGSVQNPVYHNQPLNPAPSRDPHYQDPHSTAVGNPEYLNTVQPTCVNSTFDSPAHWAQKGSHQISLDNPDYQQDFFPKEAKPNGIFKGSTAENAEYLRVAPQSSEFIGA
Assay: MTS assay, Ba/F3 cells, EFGR SVD
Type: cell-based
Details: 72 hours
Protocol: The IC50 values of the compounds provided herein were measured against kinases in Ba/F3 cells. Activities of representative compounds of the present application in inhibiting EGFR and HER2 were tested by MTS assay (abcam®) for Ba/F3 cells. For assays with Ba/F3 cells, 3000 cells were seeded for per well in 96-well plates and were exposed to the indicated compounds with a concentration of 3.3 to 10 μM for 72 hours.
measure_name: IC50 (µM)
Give the number; µM is assumed, so skip it.

[
  {
    "compound": "C=CC(=O)N1CCC[C@@H](n2nc(C(=O)Nc3ccc(CN4CCn5ncnc5C4)c(C)c3)c3c(N)ncnc32)C1 [Compound 8]",
    "IC50 [µM]": 6.75
  },
  {
    "compound": "C=CC(=O)N1CCC[C@@H](n2nc(C(=O)Nc3ccc(Oc4ccn5ncnc5c4)c(C)c3)c3c(N)ncnc32)C1 [Compound 2]",
    "IC50 [µM]": 3.98
  },
  {
    "compound": "C=CC(=O)N1CCC[C@@H](n2nc(C(=O)Nc3ccc(CC(=O)N(C)C)c(C)c3C)c3c(N)ncnc32)C1 [TAS0728, reference compound]",
    "IC50 [µM]": 4.48
  }
]

# input compound: C=CC(=O)N1CCC[C@@H](n2nc(C(=O)Nc3ccc(Cn4ccnc4)c(C)c3)c3c(N)ncnc32)C1 [Compound 4] ; wanted: its IC50 6.04

# input compound: C=CC(=O)N1CCC[C@@H](n2nc(C(=O)Nc3ccc(C(=O)N4CCn5ccnc5C4)c(C)c3)c3c(N)ncnc32)C1 [Compound 6] ; wanted: its IC50 7.84

# input compound: C=CC(=O)N1CCC[C@@H](n2nc(C(=O)Nc3ccc(Oc4ccn5ncnc5c4)c(C)c3C)c3c(N)ncnc32)C1 [Compound 1] ; wanted: its IC50 2.62

###

biological target: HER2 WT (Ba/F3 cells) (Homo sapiens, UniProt P04626); construct: expressed in transfected cells; host or cells: Ba/F3; experiment: MTS assay, Ba/F3 cells, HER2 WT; type: cell-based; settings: 72 hours
Sequence (P04626 23-1255): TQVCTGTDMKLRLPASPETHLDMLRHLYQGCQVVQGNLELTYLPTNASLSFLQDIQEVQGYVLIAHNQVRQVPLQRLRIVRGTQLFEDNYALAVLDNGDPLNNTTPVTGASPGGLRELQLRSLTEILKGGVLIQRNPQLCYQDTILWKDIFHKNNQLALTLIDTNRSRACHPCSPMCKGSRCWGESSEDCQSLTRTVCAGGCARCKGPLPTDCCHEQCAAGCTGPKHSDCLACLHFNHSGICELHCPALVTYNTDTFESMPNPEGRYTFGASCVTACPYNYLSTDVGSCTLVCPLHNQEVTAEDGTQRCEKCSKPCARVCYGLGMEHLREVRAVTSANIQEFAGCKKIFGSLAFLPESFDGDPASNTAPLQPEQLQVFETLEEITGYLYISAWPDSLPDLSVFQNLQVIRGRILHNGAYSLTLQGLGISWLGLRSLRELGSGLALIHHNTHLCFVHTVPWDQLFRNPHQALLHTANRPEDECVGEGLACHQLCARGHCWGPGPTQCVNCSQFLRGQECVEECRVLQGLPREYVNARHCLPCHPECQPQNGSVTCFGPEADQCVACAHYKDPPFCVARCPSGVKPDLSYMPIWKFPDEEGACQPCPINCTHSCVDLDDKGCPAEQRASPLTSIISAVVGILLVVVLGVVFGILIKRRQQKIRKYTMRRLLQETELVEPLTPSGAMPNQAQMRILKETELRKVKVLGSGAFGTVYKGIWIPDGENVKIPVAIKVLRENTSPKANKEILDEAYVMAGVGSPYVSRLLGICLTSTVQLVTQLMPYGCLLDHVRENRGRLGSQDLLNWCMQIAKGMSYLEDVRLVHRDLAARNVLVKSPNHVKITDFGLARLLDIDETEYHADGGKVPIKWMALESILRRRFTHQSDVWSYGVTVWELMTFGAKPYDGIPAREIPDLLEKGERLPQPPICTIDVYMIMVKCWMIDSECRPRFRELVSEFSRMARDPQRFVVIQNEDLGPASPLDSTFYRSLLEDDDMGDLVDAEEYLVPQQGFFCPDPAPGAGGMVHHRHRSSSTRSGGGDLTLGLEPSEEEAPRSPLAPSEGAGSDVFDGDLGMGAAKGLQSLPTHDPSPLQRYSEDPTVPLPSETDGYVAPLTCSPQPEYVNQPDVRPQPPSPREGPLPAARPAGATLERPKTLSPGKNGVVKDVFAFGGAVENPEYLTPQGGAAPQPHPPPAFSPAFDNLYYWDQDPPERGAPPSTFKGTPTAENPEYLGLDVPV
Recorded IC50 for the following molecules
Give the number; µM is assumed, so skip it.

Example entries begin here.
[
  {
    "molecule": "C=CC(=O)N1CCC[C@@H](n2nc(C(=O)Nc3ccc(CN4CCn5ccnc5C4)c(C)c3)c3c(N)ncnc32)C1 [Compound 9]",
    "IC50, µM": 2.63
  },
  {
    "molecule": "C=CC(=O)N1CCC[C@@H](n2nc(C(=O)Nc3ccc(Oc4ccn5ncnc5c4)c(Cl)c3)c3c(N)ncnc32)C1 [Compound 3]",
    "IC50, µM": 0.0981
  },
  {
    "molecule": "C=CC(=O)N1CCC[C@@H](n2nc(C(=O)Nc3ccc(CN4CCn5ncnc5C4)c(C)c3)c3c(N)ncnc32)C1 [Compound 8]",
    "IC50, µM": 3.24
  },
  {
    "molecule": "C=CC(=O)N1CCC[C@@H](n2nc(C(=O)Nc3ccc(Oc4ccn5ncnc5c4)c(C)c3C)c3c(N)ncnc32)C1 [Compound 1]",
    "IC50, µM": 0.111
  }
]

# ---- query molecule ----
# input molecule: C=CC(=O)N1CCC[C@@H](n2nc(C(=O)Nc3ccc(C(=O)N4CCn5ccnc5C4)c(C)c3)c3c(N)ncnc32)C1 [Compound 6] ; wanted: its IC50 5.79
